Measured values drawn from patent US12195427B2 for this set.

Assign van der Waals contact distance, MASP-2 PHE 529 atom CE1 to each entry below.
systemUnderTest: MASP-2 CCP2-SP (Homo sapiens (Human), UniProt O00187)
Sequence (O00187 445-686): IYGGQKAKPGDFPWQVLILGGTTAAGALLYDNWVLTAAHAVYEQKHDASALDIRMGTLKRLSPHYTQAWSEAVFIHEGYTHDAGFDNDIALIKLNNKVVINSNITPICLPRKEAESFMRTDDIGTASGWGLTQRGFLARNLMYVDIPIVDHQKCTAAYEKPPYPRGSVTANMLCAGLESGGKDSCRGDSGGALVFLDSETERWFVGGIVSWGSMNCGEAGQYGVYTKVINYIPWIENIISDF
Sequence (O00187 364-432 partner): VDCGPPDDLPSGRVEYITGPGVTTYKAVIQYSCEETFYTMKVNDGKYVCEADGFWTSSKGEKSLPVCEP
experimentNotes: MASP-2 co-crystallization, X-ray crystallography and structure analysis (H-bonds, van der Waals contacts)
appliedConditions: Table A2-3
Counter-ions that a name gives are not always drawn.
Number only, no unit.

Q: Look up van der Waals contact distance, MASP-2 PHE 529 atom CE1 for this molecule: Cc1nc(N)ccc1CNC(=O)C(C)NC(=O)[C@H]1C[C@H](c2cccc(-c3ccccc3)c2)CN1 (stereo in doubt)
Result: 3.78

Q: Cool, now O=c1oc(-c2ccccc2[N+](=O)[O-])nc2ccccc12
Result: 3.21

Q: Cool, now C[C@H](NC(=O)[C@H]1C[C@H](c2ccccc2)CN1)C(=O)NCc1ccc(N)nc1
Result: 3.75

Q: Cool, now Cc1nc(N)ccc1CNC(=O)[C@H](C)NC(=O)[C@H]1C[C@H](Cc2ccc(-c3ccccc3)cc2)CN1
Result: 3.8

Q: Cool, now Cc1nc(N)ccc1CNC(=O)[C@H](C)NC(=O)[C@H]1C[C@@H](c2ccccc2)CCN1CCC(=O)O [compound 1411, Trifluoroacetate salt]
Result: 3.69

Q: Cool, now C[C@H](NC(=O)[C@@H](CCc1ccccc1)NCc1ccc(N2CCOCC2)cc1)C(=O)NCc1ccc(C(=N)N)cc1
Result: 3.68

Q: Cool, now C[C@H](NC(=O)[C@H]1C[C@@H](c2ccccc2)CN1)C(=O)NCc1ccc(C(=N)N)cc1
Result: 3.27
